In this section, each of the binders is paired with its reported binding signal.
# SYSTEM: T1, RBFOX1 RRM RbFoxmut (Fox-RRM*) (Homo sapiens, UniProt Q9NWB1 109-208, R118D;E147R;N151S;E152T)
# T1 sequence: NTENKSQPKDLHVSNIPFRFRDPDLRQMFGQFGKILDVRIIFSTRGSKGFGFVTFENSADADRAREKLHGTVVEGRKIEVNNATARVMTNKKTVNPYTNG
# EXPERIMENT: EMSA; HiTS-Eq, 1 nM pool, 10 min; buffer printed only for the single-RNA assays: 10 mM Tris pH 7.5, 150 mM NaCl, 3.4 mM EDTA, 0.001% NP-40, 30 C
# CONDITION DESCRIPTION: tags: His6 N-terminal (pET28a); label: 5' 32P
Whole data set: some 16,000 sequences, median “ka relative to ugcaugu” near 0.096, cut for the highest 2% near 0.35. This excerpt belongs to a sample that is enriched for the highest values.

[[record]]
binder = "GGUAUCU (DNA:RNA) RNA: GGGAGACCGGAAUUCAGAUUGUCCGGUAUCUUUAAAUCCCGUCGUAGCCACCA DNA 1: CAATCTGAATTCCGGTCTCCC DNA 2: TGGTGGCTACGACGGGATT"
meas_value = "0.206 KA relative to UGCAUGU"


Req: Specify reported binding signal for the binder shown: GUUAAUC (DNA:RNA) RNA: GGGAGACCGGAAUUCAGAUUGUCCGUUAAUCUUAAAUCCCGUCGUAGCCACCA DNA 1: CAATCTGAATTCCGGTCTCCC DNA 2: TGGTGGCTACGACGGGATT
Resp: 0.0571 KA relative to UGCAUGU
